Values were extracted from the OligoGym collection.

- measurement-target: GH2
- test: pooled miR-30 sensor sort-seq; sequence = guide strand; further: reference of the scale not given here
- study-conditions: shRNA
Assign sensor-assay potency score (higher = more potent) to each entry below.
Answers are plain numbers.

Data request: Provide the documented sensor-assay potency score (higher = more potent) with GH2 as the system for AAGGTGTTGGAATAGACTCTGA
Data returned: -0.802

Data request: Give recorded sensor-assay potency score (higher = more potent) with GH2 for the following sequence: TTAAACTCCTGATAGGTGTCAT
Data returned: -0.0284

Data request: Form field - read-out: sensor-assay potency score (higher = more potent); system: GH2; submitted item: TAGACGTTGCTGTCCGAGGCGC
Data returned: -0.468

Data request: # query: sensor-assay potency score (higher = more potent) | item TTGAGCAGTGCGTCATCGTTGT | system: GH2
Data returned: 0.36

Data request: Give GH2 sensor-assay potency score (higher = more potent) for TAAACTCCTGATAGGTGTCATA
Data returned: -1.52

Data request: Hi! What's the reported sensor-assay potency score (higher = more potent) for TATGCCAGCTGGTACAGGCGAC on GH2?
Data returned: -1.2

Turning to the following sequence.
Data request: Query for GH2: what sensor-assay potency score (higher = more potent) does the record show for TCAAACTTGCTGTAGGACTGAT ?
Data returned: 0.205

====

- measurement-target: MIA
- test: pooled miR-30 sensor sort-seq; sequence = guide strand
- study-conditions: shRNA
reported-endpoint: sensor-assay potency score (higher = more potent)

# example entries with known answers
Data request: Fill in the recorded sensor-assay potency score (higher = more potent) for this sequence, with MIA as test system: TTTGTCTGTCTTCACATCGACT
Data returned: -0.999

Data request: Form field - read-out: sensor-assay potency score (higher = more potent); system: MIA; submitted item: TGGTCCGCACACAGCTTCCGGT
Data returned: -1.49

Data request: // map TGAATGGTCAGGAATCGGCAGT to recorded sensor-assay potency score (higher = more potent) (system: MIA)
Data returned: -0.833

Data request: Value wanted: sensor-assay potency score (higher = more potent) (MIA) of entry TTTGCCAGGTTTCAGGGTCTGG
Data returned: -1.17

Dear colleague, could you send me sensor-assay potency score (higher = more potent) for each of the items below? Thanks.
1. ATTTGTCTGTCTTCACATCGAC
2. TGGTCCTCTCGGACAATGCTAC
3. TTGGGCATAGGACCACCCCTGA
4. TCTCGGACAATGCTACTGGGGA

Data returned:
1: -0.34; 2: -1.39; 3: -1.13; 4: -1.23

====

- measurement-target: ZNF548
- test: pooled miR-30 sensor sort-seq; sequence = guide strand
- study-conditions: shRNA
reported-endpoint: sensor-assay potency score (higher = more potent)

// input: 6 sequences below; output: sensor-assay potency score (higher = more potent) for each
1. TAACCTCTGACACTCCTACAGA
2. AATTCCATTGTGCTCAACCAGG
3. TTGTAACCTCTGACACTCCTAC
4. ATTTGTAATCATTTTGTCCAGT
5. TGTCTAACAAATGTGGAGCTGT
6. TTTCTGGTGATGAACCAGGTGA

Data returned:
1. -0.754
2. -1.53
3. -0.158
4. -0.192
5. 0.213
6. -0.687

====

- measurement-target: RIN3
- test: pooled miR-30 sensor sort-seq; sequence = guide strand
- study-conditions: shRNA
reported-endpoint: sensor-assay potency score (higher = more potent)
Give bare numbers.

Data request: So what does the record say about sensor-assay potency score (higher = more potent) for TAACTGGTTCTCCTTGAGCTGC ?
Data returned: -1.24

Data request: Suppose we examine the sequence TTCCTTAATGGTGTATTCGAGC ; what sensor-assay potency score (higher = more potent) value has been reported?
Data returned: -0.939

Data request: Give its sensor-assay potency score (higher = more potent) value. Item: TTGAGCTGGGTCATCATGGTGC
Data returned: 0.23

Data request: Query (sequence): TAAGTCTCTACTGACACAGTAG ; field requested: sensor-assay potency score (higher = more potent)
Data returned: -0.266

Data request: I am curious: what sensor-assay potency score (higher = more potent) value has been reported for TGTCTAGCTGCTTCTTGCCGGG ?
Data returned: -0.191

Data request: Which sensor-assay potency score (higher = more potent) value is on record for ATCTCCTGCAGCATCTCCGTGC ?
Data returned: -0.98

Data request: Name the reported sensor-assay potency score (higher = more potent) value associated with the sequence TAGATGAGTTTGCAGGTCTTGA
Data returned: -0.805

Now for a further sequence.
Data request: Sample TGTTTTGATGAGCTTCTCCAGG — what was its sensor-assay potency score (higher = more potent)?
Data returned: -1.05

====

- measurement-target: TSC1
- test: pooled miR-30 sensor sort-seq; sequence = guide strand
- study-conditions: shRNA
For each entry below, report its sensor-assay potency score (higher = more potent) value.
Numbers only.

Data request: Request the reported sensor-assay potency score (higher = more potent) associated with TAGATATTTCTTCTGTTCCAAA
Data returned: -1.26

Would you mind giving sensor-assay potency score (higher = more potent) for every sequence in the list below?
1. TTCTCTTGTAACTTCAACTGAT
2. TAGCTGTCCAACACTGTCCGGG
3. TAGAGTGACAGAACCTTTGCTG
4. TATCTTTTTCAATACTATCTTC
5. TGAACTTGCACTCAGACCCTGG
6. TTCCAGGTAATAATCCACCAAG

Data returned:
[0.432, -0.0259, 0.691, -0.463, -0.099, -1.16]

====

- measurement-target: GINS3
- test: pooled miR-30 sensor sort-seq; sequence = guide strand
- study-conditions: shRNA
So I've got a bunch of sequences here, and I need their sensor-assay potency score (higher = more potent) values.
Numbers only.

In the examples that follow, each entry is paired with its recorded sensor-assay potency score (higher = more potent).
Data request: I am curious: what sensor-assay potency score (higher = more potent) value has been reported for TTTCTCTTCTTGTAATTCTGAA ?
Data returned: -0.125

Data request: What value of measured sensor-assay potency score (higher = more potent) is listed for TAGTGAAACTGTACATCTGAAG ?
Data returned: -1.07

Data request: Field request: sensor-assay potency score (higher = more potent) | item: TTCTATGCAATAATGTTGCAAA
Data returned: -0.524

Could you report sensor-assay potency score (higher = more potent) for every entry in the following list?
1. TTATAAAAACAACAATTCCATC
2. TTTATTTAGCACTAAAATCAAA

Data returned:
1: -1.34; 2: -1.42

====

Can you tell me sensor-assay potency score (higher = more potent) for the items I'm about to list?
- measurement-target: SIK3
- test: pooled miR-30 sensor sort-seq; sequence = guide strand
- study-conditions: shRNA
Numbers only.

Past entries and their recorded results:
Data request: Looking for the measured sensor-assay potency score (higher = more potent) of TAAATCACGATGAACAATGTTC , can you help?
Data returned: -0.457

Data request: What value of sensor-assay potency score (higher = more potent) has been recorded for this entry: TATGATCTTGATAGCAACCTTG
Data returned: -0.675

Data request: Field request: sensor-assay potency score (higher = more potent) | item: TTCATAATTTGAACTTCCCGGA
Data returned: -0.153

Data request: If you can, please state the reported sensor-assay potency score (higher = more potent) value of TTAGTTGTTGGCATTCAGCTAT .
Data returned: -0.107

Dear reader, for each entry below, please note its sensor-assay potency score (higher = more potent).
1. TAGCTGAGCAGAATGTCTGTAA
2. TTATCTATGATCTTGATAGCAA
3. TACATAAGCATCGTCGCTGTTC
4. TTAATGACTGCAGTGTCTGTTC

Data returned:
-0.0523
-0.377
-0.402
-0.0807

====

- measurement-target: SSR4
- test: pooled miR-30 sensor sort-seq; sequence = guide strand
- study-conditions: shRNA
reported-endpoint: sensor-assay potency score (higher = more potent)
Give bare numbers.

Worked examples follow.
Data request: Recorded sensor-assay potency score (higher = more potent) of TCGAGTGACAGGGAATTGTTTT , please.
Data returned: -0.927

Data request: Bench note: what sensor-assay potency score (higher = more potent) did TCAGAAGTGGTGTAGTAGGAAG show?
Data returned: -1.28

Data request: May I ask what sensor-assay potency score (higher = more potent) has been recorded for TCTCAGTGGAAATGACAGCGTC ?
Data returned: -0.63

Data request: Endpoint output: sensor-assay potency score (higher = more potent) of TAGATCACAAGGCCGATCGCCG . Value?
Data returned: -0.829

Data request: Recorded sensor-assay potency score (higher = more potent) for AATCTAACCTCATAGGTGCCTG , please?
Data returned: -0.709

Give sensor-assay potency score (higher = more potent) for all sequences that follow.
1. AAGTAGTAGATCACAAGGCCGA
2. TGACTGTAAACAGAGGCGGGAT

Data returned:
[-0.597, -0.672]
